Tested on: HCT116 MTAP knockout cells
Experiment: Human colon cancer HCT116 cell proliferation inhibition test (CellTiter-Glo, 6 days), MTAP knockout cells
Format: cell-based
Conditions: HCT-116, 144 h
Measure: IC50 (nM)

COC[C@@H](C)N(C(=O)c1cc2c3c(c(N)nc2cc1F)COC3)[C@H]1CCc2cc(C(F)(F)F)ccc21 : 2360
Nc1nc2ccc(C(=O)N(CC3CC3)[C@@H]3CCc4nc(C(F)(F)F)ccc43)cc2c2cnccc12 : 134
Nc1nc2ccc(C(=O)N(C3CC3)C3CCc4nc(C(F)(F)F)ccc43)cc2c2cnccc12 (stereo not shown) : 286

P. Nc1nc2ccc(C(=O)N(CC3CC3)[C@H]3COc4nc(C(F)(F)F)ccc43)cc2c2cnccc12
Q. C[C@H](c1ncccn1)N(C(=O)c1ccc2nc(N)c3ccncc3c2c1)[C@@H]1CCc2cc(C(F)(F)F)ccc21
R. Nc1nc2cc(F)c(C(=O)N(CC3CC3)[C@@H]3COc4cc(C(F)(F)F)ccc43)cc2c2cnccc12
S. Cn1ncc2c(N)nc3cc(F)c(C(=O)N(c4cscn4)[C@@H]4CCc5cc(C(F)(F)F)ccc54)cc3c21
Arrange the 4 compounds from largest to smallest IC50. Please list the labels according to the requested order.
P, Q, R, S
(P: 1530 nM, Q: 217 nM, R: 20 nM, S: 4 nM)

a. Cn1cc(N(C(=O)c2cc3c4c(c(N)nc3cc2F)COC4)[C@@H]2CCc3cc(C(F)(F)F)ccc32)cn1
b. Cn1ncc2c(N)nc3cc(F)c(C(=O)N(Cc4ncccn4)C4CCc5cc(C(F)(F)F)ccc54)cc3c21 (stereo not shown)
c. C[C@H](c1ncccn1)N(C(=O)c1cc2c(cc1F)nc(N)c1cnn(C)c12)[C@@H]1CCc2cc(C(F)(F)F)ccc21
d. Cn1cc(N(C(=O)c2cc3c(cc2F)nc(N)c2cnn(C)c23)C2COc3cc(C(F)(F)F)ccc32)cn1 (stereo not shown)
e. Nc1nc2ccc(C(=O)N(CC3CC3)[C@H]3CCc4nc(C(F)(F)F)ccc43)cc2c2cnccc12
Please rank these compounds by IC50 in descending order. Respond with an ordered listing of the labels, as requested.
e, c, b, a, d
(e: 792 nM, c: 88 nM, b: 57 nM, a: 17 nM, d: 0.8 nM)

---

Test system: HCT116 MTAP knockout cells
Assay: Human colon cancer HCT116 cell proliferation inhibition test (CellTiter-Glo, 6 days), MTAP knockout cells
Format: cell-based
Settings: HCT-116, 144 h
Measure: IC50 (µM)

COC[C@@H](C)N(C(=O)c1ccc2nc(N)c3ccncc3c2c1)[C@@H]1CCc2cc(C(F)(F)F)ccc21 : 0.94
Cn1cc(N(C(=O)c2ccc3nc(N)c4c(cnn4C)c3c2)C2COc3cc(C(F)(F)F)ccc32)cn1 (stereo not shown) : 0.035
Nc1nc2ccc(C(=O)N(CC3CC3)[C@H]3COc4cc(C(F)(F)F)ccc43)cc2c2cnccc12 : 0.452
Nc1nc2ccc(C(=O)N(c3ncccn3)C3CCc4cc(C(F)(F)F)ccc43)cc2c2cnccc12 (stereo not shown) : 0.063

A. Nc1nc2cc(Cl)c(C(=O)N(CC3CC3)[C@@H]3CCc4nc(C(F)(F)F)ccc43)cc2c2cnccc12
B. Cn1cc(N(C(=O)c2ccc3nc(N)c4ccncc4c3c2)C2COc3cc(C(F)(F)F)ccc32)cn1 (stereo not shown)
C. Cn1ncc2c(N)nc3ccc(C(=O)N(c4ncccn4)C4CCc5cc(C(F)(F)F)ccc54)cc3c21 (stereo not shown)
Write the entries in order, lowest recorded IC50 first. List each label, following the requested order.
B, A, C
(B: 0.008 µM, A: 0.014 µM, C: 0.325 µM)
